Assay: Cell viability in keratinocyte CCL2 assay (assay number 1243)
Format: cell-based, human
Conditions: human; keratinocyte CCL2 assay; read-out: maximum reduction of cell viability
Description: • 1. Determination of inhibition of CCL2 release from IL-4, IL-13, IL-22 and IFN-γ-stimulated primary human keratinocytes [assay number 1280] and determination of the effect on cell viability [assay number 1243]. • 2. Determination of inhibition of IL-8 release from IL-17A and TNFα-induced primary human keratinocytes [assay number 1250] and determination of the effect on cell viability [assay number 1244]. • 3. […]
recorded endpoint: cytotoxicity
The number alone won't do; follow it with the unit.

{"compound": "CCOc1cc(O)cc(/C=C/c2ccc(NC=O)c(OC)c2)c1CC=C(C)C [Compound 28]", "cytotoxicity": "68%"}

Req: Any idea what its cytotoxicity is? The compound is COc1cc(/C=C/c2cc(O)cc(OC)c2CC=C(C)C)ccc1NC=O [Compound 27]
Resp: 67%

Cited source for all entries: patent US20260209152A1
